These measurements were taken from patent US20060153834A1.

# tested-system: Human IgG (HIgG) (human)
# method: batch adsorption isotherm, PBS pH 7.4, peptide resin 0.1 meq/g, direct Langmuir fit
No end group written: not given here.

binder	qm (maximum capacity)
HWRGWVA-{Toyopearl AF‑Amino‑650 resin}	50 mg/g
HYFKFDA-{Toyopearl AF‑Amino‑650 resin}	127 mg/g
YYWLHHA-{Toyopearl AF‑Amino‑650 resin}	113 mg/g
